Here we list compounds with their recorded IC50 when tested on Acetylcholinesterase (Homo sapiens, UniProt P22303).
Sequence (P22303 whole entry): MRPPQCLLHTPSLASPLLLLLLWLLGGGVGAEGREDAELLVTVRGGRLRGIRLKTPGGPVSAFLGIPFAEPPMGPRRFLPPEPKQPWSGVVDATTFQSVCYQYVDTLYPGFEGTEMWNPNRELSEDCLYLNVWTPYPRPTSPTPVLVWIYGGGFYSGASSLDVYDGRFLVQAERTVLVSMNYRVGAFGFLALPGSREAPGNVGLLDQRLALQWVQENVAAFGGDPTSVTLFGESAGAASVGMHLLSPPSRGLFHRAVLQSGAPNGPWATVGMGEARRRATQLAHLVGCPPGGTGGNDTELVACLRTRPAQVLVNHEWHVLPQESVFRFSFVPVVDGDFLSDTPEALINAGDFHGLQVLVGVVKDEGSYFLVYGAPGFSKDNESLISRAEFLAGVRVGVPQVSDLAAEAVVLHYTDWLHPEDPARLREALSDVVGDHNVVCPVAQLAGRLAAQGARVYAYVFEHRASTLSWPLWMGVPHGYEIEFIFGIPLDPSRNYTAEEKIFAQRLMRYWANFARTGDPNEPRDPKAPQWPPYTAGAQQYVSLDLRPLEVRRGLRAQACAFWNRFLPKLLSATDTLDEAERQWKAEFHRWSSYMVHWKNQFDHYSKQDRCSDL

# Compound, IC50
measured = [
    ("C[C@@H]1CC[C@]2(C(=O)NCc3ccccc3F)CC[C@]3(C)C(=CC[C@@H]4[C@@]5(C)C[C@@H](O)[C@H](O)[C@@](C)(CO)[C@@H]5CC[C@]43C)[C@@H]2[C@]1(C)O", "> 100 µM"),
    ("C[C@@H]1CC[C@]2(C(=O)NCc3cccc(Br)c3)CC[C@]3(C)C(=CC[C@@H]4[C@@]5(C)C[C@@H](O)[C@H](O)[C@@](C)(CO)[C@@H]5CC[C@]43C)[C@@H]2[C@]1(C)O", "78 µM"),
    ("C[C@@H]1CC[C@]2(C(=O)O)CC[C@]3(C)C(=CC[C@@H]4[C@@]5(C)C[C@@H](O)[C@H](O)[C@@](C)(CO)[C@@H]5CC[C@]43C)[C@@H]2[C@]1(C)O", "23.2 µM"),
    ("C[C@@H]1CC[C@]2(C(=O)O)CC[C@]3(C)C(=CC[C@@H]4[C@@]5(C)C[C@@H](OC(=O)c6ccc(C(F)(F)F)cc6)[C@H](OC(=O)c6ccc(C(F)(F)F)cc6)[C@@](C)(CO)[C@@H]5CC[C@]43C)[C@@H]2[C@]1(C)O", "43.4 µM"),
    ("C[C@@H]1CC[C@]2(C(=O)NCc3ccccc3Br)CC[C@]3(C)C(=CC[C@@H]4[C@@]5(C)C[C@@H](O)[C@H](O)[C@@](C)(CO)[C@@H]5CC[C@]43C)[C@@H]2[C@]1(C)O", "47.7 µM"),
    ("COc1ccc(C(=O)OC[C@]2(C)C=C(C=O)[C@@]3(C)[C@H]2CC[C@]2(C)[C@@H]3CC=C3[C@H]4[C@](C(=O)O)(CC[C@@H](C)[C@@]4(C)OC(=O)c4ccc(OC)cc4)CC[C@]32C)cc1", "70.2 µM"),
    ("CCCCCCNC(=O)[C@]12CC[C@@H](C)[C@@](C)(O)[C@H]1C1=CC[C@@]3(C)[C@@](C)(CC[C@H]4[C@](C)(CO)[C@@H](O)[C@H](O)C[C@@]43C)[C@]1(C)CC2", "> 100 µM"),
]
